Reference for the values: patent US20120270864A1

For each record, write down the corresponding Inhibition (%).
- Tested on: Staphylococcus aureus (Sau) 516 cells
- test summary: Bacterial Susceptibility Testing Methods 2 (microbroth dilution, growth inhibition)
- Assay type: cell-based
- condition context: Tested Concentration 8 μg/mL; Staphylococcus aureus 516 cell growth suppressed compared to untreated sample
Answers are plain numbers, in %.

Consider the reported Inhibition (%) for these compounds:
compound: N#Cc1ccc2ccc(=O)n(CCN3CC[C@H](NCc4cc5c(cn4)OCCO5)[C@H](O)C3)c2c1
recorded endpoint: Inhibition (%)
observed result: 100
--
compound: COc1ccc2ncc(=O)n(CCN3CCC(NCc4cc5c(cn4)OCCO5)C(O)C3)c2c1 (single isomer, unassigned)
recorded endpoint: Inhibition (%)
observed result: 87
--
compound: COc1ccc2ncc(=O)n(CCN3CCC(NCc4ccc5c(n4)NC(=O)CO5)C(O)C3)c2c1 (single isomer, unassigned)
recorded endpoint: Inhibition (%)
observed result: 98
--
compound: CO[C@@H]1CN(CCn2c(=O)ccc3ccc(C#N)cc32)CC[C@H]1NCc1cc2c(cn1)OCCO2
recorded endpoint: Inhibition (%)
observed result: 100
--
compound: COc1ccc2ncc(=O)n(CCN3CC[C@H](NCc4ccc5c(n4)NC(=O)CS5)[C@H](O)C3)c2c1
recorded endpoint: Inhibition (%)
observed result: 100

Kindly consider the entry below.
# query: Inhibition (%) of entry COc1ccc2ncc(=O)n(CCN3CC[C@H](NCc4ccc5c(n4)NC(=O)CS5)[C@H](OC)C3)c2c1 95

---

- Tested on: Staphylococcus aureus (Sau) 516 cells
- test summary: Bacterial Susceptibility Testing Methods 2 (microbroth dilution, growth inhibition)
- Type: cell-based
- condition context: Staphylococcus aureus, Tested Concentration 8 μg/mL; Staphylococcus aureus 516 cell growth suppressed compared to untreated sample
- Procedure: Compounds may be tested for antimicrobial activity by susceptibility testing using microbroth dilution methods recommended by CSLI. […] Plates may be incubated under appropriate conditions of atmosphere and temperature and for times according to NCCLS standard methods prior to being read. […] In some instances, however, compounds were tested at concentrations higher than 8 μg/mL, typically when the concentration was first measured in μM and was subsequently converted to μg/mL. […]
For each record, write down the corresponding inhibition at 8 µg/mL.
The answer should read as a number with its unit following.

Consider the reported inhibition at 8 µg/mL for these compounds:
compound: COc1ccc2ncc(=O)n(CCN3CC[C@@H](NCc4ccc5c(n4)NC(=O)CO5)[C@H](OC)C3)c2c1 [Example 28]
inhibition at 8 µg/mL: 98%
--
compound: CO[C@H]1CN(CCn2c(=O)ccc3ccc(C#N)cc32)CC[C@@H]1NCc1cc2c(cn1)OCCO2 [Example 43]
inhibition at 8 µg/mL: 12%
--
compound: CO[C@H]1CN(CCn2c(=O)ccc3ccc(C#N)cc32)CC[C@@H]1NCc1ccc2c(n1)NC(=O)CO2 [Example 44]
inhibition at 8 µg/mL: 100%

// each listed compound needs a value for inhibition at 8 µg/mL
1. COc1ccc2ncc(=O)n(CCN3CC[C@@H](NCc4cc5c(cn4)OCCO5)[C@H](OC)C3)c2c1 [Example 27]
2. N#Cc1ccc2ccc(=O)n(CCN3CC[C@@H](NCc4cc5c(cn4)OCCO5)[C@@H](F)C3)c2c1 [Example 12]
3. CO[C@@H]1CN(CCn2c(=O)ccc3ccc(C#N)cc32)CC[C@@H]1NCc1cc2c(cn1)OCCO2 [Example 22]
4. COc1ccc2ncc(=O)n(CCN3CC[C@@H](NCc4ccc5c(n4)NC(=O)CO5)[C@@H](O)C3)c2c1 [Example 11]
5. N#Cc1ccc2ccc(=O)n(CCN3CC[C@@H](NCc4ccc5c(n4)NC(=O)CO5)[C@@H](O)C3)c2c1 [Example 5]
6. COc1ccc2ncc(=O)n(CCN3CCC(NCc4ccc5c(n4)NC(=O)CO5)C(O)C3)c2c1 (single isomer, unassigned) [Example 30]

1. 87%
2. 100%
3. 100%
4. 100%
5. 100%
6. 98%

// each listed compound needs a value for inhibition at 8 µg/mL
1. N#Cc1ccc2ccc(=O)n(CCN3CC[C@H](NCc4ccc5c(n4)NC(=O)CS5)[C@H](O)C3)c2c1 [Example 3]
2. COc1ccc2ncc(=O)n(CCN3CCC(NCc4cc5c(cn4)OCCO5)C(O)C3)c2c1 (single isomer, unassigned) [Example 29]
3. COc1ccc2ncc(=O)n(CCN3CC[C@H](NCc4cc5c(cn4)OCCO5)[C@H](O)C3)c2c1 [Example 7]

["99%", "84%", "100%"]

---

- System: Staphylococcus aureus (Sau) 516 cells
- test summary: Bacterial Susceptibility Testing Methods 2 (microbroth dilution, growth inhibition)
- Assay type: cell-based
- condition context: Staphylococcus aureus, Tested Concentration 8 μg/mL; Staphylococcus aureus 516 cell growth suppressed compared to untreated sample
For each record, write down the corresponding inhibition at 8 µg/mL.
Answers are plain numbers, in %.

mol smiles: CO[C@H]1CN(CCn2c(=O)ccc3ccc(C#N)cc32)CC[C@H]1NCc1cc2c(cn1)OCCO2
subject of test: Staphylococcus aureus (Sau) 516 cells
inhibition at 8 µg/mL [%]: 100
//
mol smiles: COc1ccc2ncc(=O)n(CCN3CC[C@H](NCc4cc5c(cn4)OCCO5)[C@H](OC)C3)c2c1
subject of test: Staphylococcus aureus (Sau) 516 cells
inhibition at 8 µg/mL [%]: 97

# query: inhibition at 8 µg/mL of entry COc1ccc2ncc(=O)n(CCN3CC[C@H](NCc4ccc5c(n4)NC(=O)CO5)[C@H](O)C3)c2c1 99
